The reader will find reported growth values listed item by item below.
System: SF-295 CNS
Experiment: NCI-60 one-dose screen, 48 h (100 = growth as untreated, 0 = no growth, -100 = all killed)
Conditions: 10 µM unless noted
Compounds without any hit were thinned out: in the full panel of roughly 83,000, 20% have a hit.
Give the number; % is assumed, so skip it.

Take a look at these entries with their results.
1) Nc1ccc([N+](=O)[O-])c2c1Oc1ccccc1O2 = 85.1
2) CC1(C)N=C(N)N=C(N)N1c1cccc(C(=O)Nc2cccc(S(=O)(=O)F)c2)c1 = 84.9

Inquiry: Given the compound COC(=O)C1CC2c3ccccc3C1c1ccccc12 (stereo not given) , what is its reported growth?
Reply text: 87.3

Inquiry: Given the compound COC(C)(C)CCC[C@H](C)C/C=C/C(C)=C/C(=O)OC(C)C , what is its reported growth?
Reply text: 98.2

Inquiry: Given the compound O=C1NC(=O)C(=Cc2cn(Cc3ccccc3)c3ccccc23)C(=O)N1 , what is its reported growth?
Reply text: 37.2

----------
Tested on: MOLT-4 leukemia
Assay: NCI-60 one-dose screen, 48 h (100 = growth as untreated, 0 = no growth, -100 = all killed)
Details: 10 µM
The panel holds about 83,000 compounds, 20% with a hit somewhere; the sample as a whole holds those more often.
Could you mark each record true if its growth falls strictly under 90%, and false if it equals or exceeds it?

The examples below pair each entry with its known result.
1. S=P(NC1CCCCC1)(N1CC1)N1CC1 = false
2. CC(C)(C)N(Cc1ccccc1)N=O = false
3. CCOC(=O)/C(C#N)=C/c1ccc(N(CCCl)CCCl)cc1 = true
4. Cc1cc(NC(=O)NCCOc2ccc(N3C(N)=NC(N)=NC3(C)C)cc2Cl)ccc1S(=O)(=O)F = true

Moving on to the next compound.
Inquiry: Quick check: does Oc1ccc(O)c2c1C1(Cl)C(Cl)=C(Cl)C2(Cl)C1(Cl)Cl have growth under 90%?
Reply text: true

----------
Tested on: A498 renal
Assay: NCI-60 one-dose screen, 48 h
Conditions: 10 µM unless noted
About 83,000 compounds went through this panel and 20% of them were active in at least one assay; those are over-represented in the sample as a whole. Activity calls are given as the source filed them. How the source made its calls: active means growth percent below 10; inactive means the rest.
A correct response names exactly one class from active, inactive

1) CC[C@H](C)[C@H](NC(=O)Nc1ccccc1)C(=O)N(C)[C@H](C[C@@H](OC(C)=O)c1nc(C(=O)N[C@@H](Cc2ccccc2)C[C@H](C)C(=O)OC)cs1)C(C)C = active
2) CCC(CO)NC1CCCCC1 (stereo unspecified) = inactive
3) Cc1nnc([S-])s1.[Au+].c1ccc([PH+](c2ccccc2)c2ccccc2)cc1 = inactive
4) O=C1NC(=O)C(O)(C2(O)C(=O)NC(=O)NC2=O)C(=O)N1 = inactive
5) O=c1cc[nH]c(=O)o1 = inactive
6) CC1(CF)NC(=O)NC1=O (stereo unspecified) = inactive

Inquiry: // outcome(item) with item = CC[CH2][Pb]([CH2]CC)([CH2]CC)[O]C(=O)C(F)(F)F
Reply text: active

Inquiry: // outcome(item) with item = COc1ccc(C(c2ccc(OC)cc2)C(Cl)(Cl)Cl)cc1
Reply text: inactive

Inquiry: // outcome(item) with item = C=CC(O)CN1CC1CC (stereo unspecified)
Reply text: inactive

Inquiry: // outcome(item) with item = ClCCN(CCCl)c1nc(Cl)c(C2CC(c3ccc(Cl)cc3)=NN2c2cc(Cl)cc(Cl)c2)s1 (stereo unspecified)
Reply text: inactive

Inquiry: // outcome(item) with item = COC(=O)C1CC2c3ccccc3C1c1ccccc12 (stereo unspecified)
Reply text: inactive

----------
Test system: HL-60(TB) leukemia
Experiment: NCI-60 one-dose screen, 48 h
Conditions: 10 µM unless noted
This is part of a sample that, as a whole, favours compounds with a hit. Of some 83,000 tested, about 20% had one in any assay. Calls of active or inactive are those of the source. Rule for the calls: active = growth percent below 10; inactive = the rest.
A correct response names exactly one class from active, inactive

Inquiry: // outcome(item) with item = N#Cc1c(-c2ccccc2)nc(SCc2nnc(-c3ccc(Cl)cc3)o2)[nH]c1=O
Reply text: inactive

----------
System: HS 578T breast
Experiment: NCI-60 one-dose screen, 48 h (100 = growth as untreated, 0 = no growth, -100 = all killed)
Conditions: 10 µM unless noted
Compounds without any hit were thinned out: in the full panel of roughly 83,000, 20% have a hit.
parameter: growth (%)
Give the number; % is assumed, so skip it.

Inquiry: Give HS 578T breast growth for CNC(=O)Oc1cccc(OC)c1
Reply text: 109

Inquiry: Give HS 578T breast growth for O=C1NC(=O)C(CN2C(=O)C3(c4ccccc42)[C@H](Cl)C(=O)N3c2ccccc2)C(=O)N1 (stereo partly specified)
Reply text: 71

Inquiry: Give HS 578T breast growth for O=C(c1cccs1)C1NO[N+]([O-])=C1c1cccs1 (stereo unspecified)
Reply text: 83

Inquiry: Give HS 578T breast growth for ClCCN(CCCl)c1ccc(/C=C\c2ccnc3ccccc23)cc1
Reply text: 89.9

Inquiry: Give HS 578T breast growth for CCC[CH2][Sn]([CH2]CCC)([CH2]CCC)[O]C(=O)c1ccc(Cl)cc1Cl
Reply text: -38.3

Inquiry: Give HS 578T breast growth for c1ccc2nc(OCCN3CC3)ccc2c1
Reply text: 98.3

----------
The reader will find reported growth values listed item by item below.
System: DU-145 prostate
Test: NCI-60 one-dose screen, 48 h (100 = growth as untreated, 0 = no growth, -100 = all killed)
Details: 10 µM unless noted
About 83,000 compounds went through this panel and 20% of them were active in at least one assay; those are over-represented in the sample as a whole. Activity calls are given as the source filed them. How the source made its calls: active means growth percent below 10; inactive means the rest.

Take a look at these entries with their results.
1) O=C(CI)Nc1ccc(Br)cc1 = 23.3% (inactive)
2) [Cl][Hg][n]1cnc2c(Cl)c(Cl)c(Cl)cc21 = 100% (inactive)
3) CCC(CO)NC1CCCCC1 (stereo not given) = 91.1% (inactive)
4) CCOP(=O)(OCC)Oc1ccc(Sc2ccc(OP(=O)(OCC)OCC)cc2)cc1 = 103% (inactive)
5) Cc1cc(CCl)c(C)cc1CCl = 1.11% (active)
6) CC(=O)Nc1ccc(Cc2ccc(NC(C)=O)cc2)cc1 = 130% (inactive)
7) CC1CC=CCC12C(=O)NC(=S)NC2=O (stereo not given) = 122% (inactive)
8) CN1CC2CCC(C1)C2=O = 115% (inactive)
9) CC(/C=N/N=C(N)N)=N/N=C(N)N = 93.9% (inactive)

Below: the item to evaluate.
Inquiry: Given the compound Cc1cccc(N=C2c3cc([N+](=O)[O-])ccc3-c3c2cc([N+](=O)[O-])cc3[N+](=O)[O-])c1 , what is its reported growth?
Reply text: 88% (inactive)

----------
The reader will find reported growth values listed item by item below.
Test system: M14 melanoma
Experiment: NCI-60 one-dose screen, 48 h (100 = growth as untreated, 0 = no growth, -100 = all killed)
Settings: 10 µM unless noted
The panel holds about 83,000 compounds, 20% with a hit somewhere; the sample as a whole holds those more often.
Give the number; % is assumed, so skip it.

Take a look at these entries with their results.
1) O=C(c1cccs1)C1NO[N+]([O-])=C1c1cccs1 (stereo unspecified) = -40.2
2) CCCCCN(CCCCC)CC(O)c1ccc(C)c(Cl)c1 (stereo unspecified) = 96
3) Cc1cc([N+](=O)[O-])c(Cl)cc1NS(=O)(=O)c1ccccc1 = 62.9
4) CCC[CH2][Sn]([CH2]CCC)([CH2]CCC)[O]C(=O)c1ccc(Cl)cc1Cl = -85.8
5) C1CN1c1nc(N2CC2)nc(N2CC2)n1 = 25.1

Inquiry: Given the compound c1ccc(CCN2CCCCC2Cc2ccccc2)cc1 (stereo unspecified) , what is its reported growth?
Reply text: 94.7

Inquiry: Given the compound C=CC(O)CN1CC1CC (stereo unspecified) , what is its reported growth?
Reply text: 96.5

Inquiry: Given the compound O=c1cc[nH]c(=O)o1 , what is its reported growth?
Reply text: 103

Inquiry: Given the compound COc1ccc(C(=O)c2ccc([As]=O)cc2)cc1 (stereo unspecified) , what is its reported growth?
Reply text: -84

Inquiry: Given the compound CC1(C)CC2(CC(C)(C)c3cc(O)c(O)cc32)c2cc(O)c(O)cc21 , what is its reported growth?
Reply text: 98.1

Inquiry: Given the compound Cc1ccc2oc(=O)c3c(c2c1)OC(N)=C(C#N)C3c1ccco1 (stereo unspecified) , what is its reported growth?
Reply text: 99.8

Inquiry: Given the compound Cc1nnc([S-])s1.[Au+].c1ccc([PH+](c2ccccc2)c2ccccc2)cc1 , what is its reported growth?
Reply text: -2.48

Inquiry: Given the compound C[C@]12CC[C@H]3[C@@H](C[C@@H]4N=C(c5ccc(O)cc5)S[C@@]45C[C@H](O)CC[C@]35C)[C@@H]1CC[C@@H]2O , what is its reported growth?
Reply text: 60.5

Inquiry: Given the compound C=C=[CH][Sn]([c]1ccccc1)([c]1ccccc1)[c]1ccccc1 , what is its reported growth?
Reply text: -66.1

Inquiry: Given the compound Oc1ccc(Br)cc1CN1CCN(Cc2ccc(Cl)cc2)CC1 , what is its reported growth?
Reply text: 85.9

Inquiry: Given the compound C/C(=N/OC(=O)N(C)C)c1ccc(Cl)cc1Cl , what is its reported growth?
Reply text: 106

Inquiry: Given the compound CO[C@@H](c1ccccc1Cl)[C@H](C)OC(N)=O , what is its reported growth?
Reply text: 89.9

Attribution: PubChem BioAssay (NCI)
